TARGET ENTITY: rat maltase (partially purified alpha-glucosidase from intestinal rat powder)
ASSAY TEXT: Intestinal alpha-glucosidase assay, maltose substrate (Glucose GO Kit)
Provide the reported pIC50 of each item.
Units for pIC50: none; it is -log10 of a concentration expressed in mol/L.

// map Cc1cc(NCc2cccc(CN3C[C@H](O)[C@@H](O)[C@H](O)[C@H]3CO)c2)cc(N2CCOCC2)c1 [Compound 1031] to recorded pIC50 (system: rat maltase (partially purified alpha-glucosidase from intestinal rat powder))
6.76

Please do the same for OC[C@@H]1[C@@H](O)[C@H](O)[C@@H](O)CN1Cc1ccc(CNc2ccc(CN3CCCO3)cc2)cc1 [Compound 1092] as well.
7.42

Please do the same for OC[C@@H]1[C@@H](O)[C@H](O)[C@@H](O)CN1Cc1cccc(CNc2ccc(N3CCOCC3)cc2)c1 [Compound 1081] as well.
6.96

Please do the same for OC[C@@H]1[C@@H](O)[C@H](O)[C@@H](O)CN1CCc1ccc(CCNc2cc(Cl)cc(-c3ccco3)c2)cc1 [Compound 1159] as well.
7.60

Please do the same for [N-]=[N+]=Nc1ccc(NCCc2cc(CCN3C[C@H](O)[C@@H](O)[C@H](O)[C@H]3CO)cc(C3CCCCC3)c2)c([N+](=O)[O-])c1 [Compound 1115] as well.
5.17

Please do the same for OC[C@@H]1[C@@H](O)[C@H](O)[C@@H](O)CN1Cc1cccc(CNc2ccc(-c3cccnn3)cc2)c1 [Compound 1083] as well.
7.27
